Kindly supply the reported Selectivity α1A/α1D values for the records listed here.
Target: α1A adrenoceptor (prostate) (Rattus norvegicus)
Construct: from tissue; host or cells: isolated prostate tissue
Sequence (P43140 1-466): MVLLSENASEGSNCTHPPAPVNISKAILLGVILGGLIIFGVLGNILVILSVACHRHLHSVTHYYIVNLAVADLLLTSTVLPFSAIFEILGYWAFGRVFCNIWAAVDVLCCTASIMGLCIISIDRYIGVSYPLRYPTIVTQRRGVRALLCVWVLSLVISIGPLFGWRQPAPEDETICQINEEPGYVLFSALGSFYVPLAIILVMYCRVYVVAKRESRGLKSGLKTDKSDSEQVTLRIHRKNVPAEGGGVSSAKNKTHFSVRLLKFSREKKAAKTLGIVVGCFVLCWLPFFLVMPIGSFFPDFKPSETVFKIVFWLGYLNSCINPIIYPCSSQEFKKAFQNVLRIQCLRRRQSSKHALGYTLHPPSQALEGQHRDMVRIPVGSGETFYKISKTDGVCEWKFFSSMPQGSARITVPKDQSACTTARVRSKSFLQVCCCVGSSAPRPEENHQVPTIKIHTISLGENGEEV
Test: In vitro functional study, antagonism of phenylepinephrine-induced contraction of prostate
Format: biochemical
Details: functional assays, from pKB values
Excerpt: […]
Lab note: record just the number, no unit beside it.

Data request: Output measured Selectivity α1A/α1D for this item: CCOc1ccccc1N1CCN(CCCN2C(=O)C3CC=CCC3C2=O)CC1.Cl (stereo not shown)
Data returned: 15

Data request: Output measured Selectivity α1A/α1D for this item: CC(C)Oc1ccccc1N1CCN(CCCN2C(=O)C3CC=CCC3C2=O)CC1.Cl (stereo not shown)
Data returned: 1

Data request: Output measured Selectivity α1A/α1D for this item: Cl.O=C1C2CC=CCC2C(=O)N1CCCN1CCN(c2ccccc2)CC1 (stereo not shown)
Data returned: 5.6

Data request: Output measured Selectivity α1A/α1D for this item: CCc1ccccc1N1CCN(CCCN2C(=O)C3CC=CCC3C2=O)CC1.Cl (stereo not shown)
Data returned: 3.6

Data request: Output measured Selectivity α1A/α1D for this item: COc1ccccc1N1CCN(CCCN2C(=O)C3CC=CCC3C2=O)CC1.Cl (stereo not shown)
Data returned: 4

Data request: Output measured Selectivity α1A/α1D for this item: CCCOc1ccccc1N1CCN(CCCN2C(=O)C3CC=CCC3C2=O)CC1.Cl (stereo not shown)
Data returned: 13

Data request: Output measured Selectivity α1A/α1D for this item: CCOc1ccccc1N1CCN(C(C)CCN2C(=O)C3CC=CCC3C2=O)CC1.Cl (stereo not shown)
Data returned: 3.24

====

biological target: α1B adrenoceptor (Rattus norvegicus); construct: from tissue; host or cells: rat liver membranes; assay: Receptor binding assay, displacement of [3H]prazosin, rat liver membranes
Sequence (P15823 whole entry): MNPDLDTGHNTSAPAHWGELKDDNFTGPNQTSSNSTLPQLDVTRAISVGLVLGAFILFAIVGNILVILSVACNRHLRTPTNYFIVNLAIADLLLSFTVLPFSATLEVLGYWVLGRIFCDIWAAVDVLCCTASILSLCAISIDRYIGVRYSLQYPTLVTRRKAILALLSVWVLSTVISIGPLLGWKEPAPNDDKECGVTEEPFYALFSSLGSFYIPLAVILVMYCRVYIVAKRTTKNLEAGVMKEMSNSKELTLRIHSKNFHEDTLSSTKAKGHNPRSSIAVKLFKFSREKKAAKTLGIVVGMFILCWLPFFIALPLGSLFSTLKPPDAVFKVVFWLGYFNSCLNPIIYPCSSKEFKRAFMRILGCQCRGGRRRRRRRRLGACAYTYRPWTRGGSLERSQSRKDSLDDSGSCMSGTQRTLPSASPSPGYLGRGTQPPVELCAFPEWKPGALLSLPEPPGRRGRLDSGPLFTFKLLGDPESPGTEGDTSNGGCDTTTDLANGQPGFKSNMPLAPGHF
recorded-metric: Ki

Data request: Output measured Ki for this item: Cl.O=C1C2CC=CCC2C(=O)N1CCCN1CCN(c2cccc(C(F)(F)F)c2)CC1 (stereo not shown) [Compound 05, hydrochloride]
Data returned: > 500 nM

====

molecular target: α1A adrenoceptor (Rattus norvegicus, UniProt P43140); construct: from tissue; host or cells: rat submaxillary gland membranes; assay: Receptor binding assay, displacement of [3H]prazosin, rat submaxillary membranes; conditions: ratio of Ki α1B (rat liver) / α1A (rat submaxillary)
Kindly supply the reported Selectivity α1B/α1A values for the records listed here.
Lab note: record just the number, no unit beside it.

Data request: Output measured Selectivity α1B/α1A for this item: Cl.O=C1C2CC=CCC2C(=O)N1CCCN1CCN(c2ccccc2)CC1 (stereo not drawn) [Compound 13]
Data returned: 61

Data request: Output measured Selectivity α1B/α1A for this item: COc1ccc(F)cc1N1CCN(CCCN2C(=O)C3CC=CCC3C2=O)CC1.Cl (stereo not drawn) [Compound 08]
Data returned: 85

Data request: Output measured Selectivity α1B/α1A for this item: COc1ccc(N2CCN(CCCN3C(=O)C4CC=CCC4C3=O)CC2)c(OC)c1.Cl (stereo not drawn) [Compound 21]
Data returned: 1

Data request: Output measured Selectivity α1B/α1A for this item: Cl.O=C1C2CC=CCC2C(=O)N1CCCN1CCN(c2ccccc2F)CC1 (stereo not drawn) [Compound 06]
Data returned: 13

Data request: Output measured Selectivity α1B/α1A for this item: Cl.O=C1C2CC=CCC2C(=O)N1CCCN1CCN(c2ccc([N+](=O)[O-])cc2)CC1 (stereo not drawn) [Compound 16]
Data returned: 1

Data request: Output measured Selectivity α1B/α1A for this item: CCc1ccccc1N1CCN(CCCN2C(=O)C3CC=CCC3C2=O)CC1.Cl (stereo not drawn) [Compound 09]
Data returned: 207

Data request: Output measured Selectivity α1B/α1A for this item: CCOc1ccccc1N1CCN(C(C)CCN2C(=O)C3CC=CCC3C2=O)CC1.Cl (stereo not drawn) [Compound 31]
Data returned: 110

Data request: Output measured Selectivity α1B/α1A for this item: COc1ccccc1N1CCN(CC(C)CN2C(=O)C3CC=CCC3C2=O)CC1.Cl (stereo not drawn) [Compound 30]
Data returned: 13

Data request: Output measured Selectivity α1B/α1A for this item: Cl.O=C1C2CC=CCC2C(=O)N1CCCN1CCN(c2ccc(F)cc2F)CC1 (stereo not drawn) [Compound 10]
Data returned: 2.7

====

Kindly supply the reported melting point values for the records listed here.
Structures can show the parent of a compound that is named as a salt.

Data request: Output measured melting point for this item: Cc1ccc(N2CCN(CCCN3C(=O)C4CC=CCC4C3=O)CC2)cc1C.Cl (centres unmarked)
Data returned: 194 to 196 °C

Data request: Output measured melting point for this item: COc1ccc(OC)c(N2CCN(CCCN3C(=O)C4CC=CCC4C3=O)CC2)c1.Cl (centres unmarked)
Data returned: 193 to 195 °C

Data request: Output measured melting point for this item: Cl.O=C1C2CC=CCC2C(=O)N1CCCN1CCN(c2ccc(F)cc2F)CC1 (centres unmarked)
Data returned: 218.2 to 219 °C

Data request: Output measured melting point for this item: COc1cc(F)ccc1N1CCN(CCCN2C(=O)C3CC=CCC3C2=O)CC1.Cl (centres unmarked)
Data returned: 232 to 233 °C

Data request: Output measured melting point for this item: Cc1ccc(Cl)cc1N1CCN(CCCN2C(=O)C3CC=CCC3C2=O)CC1.Cl (centres unmarked)
Data returned: 231 to 232 °C

Data request: Output measured melting point for this item: CC(C)Oc1ccccc1N1CCN(CCCN2C(=O)C3CC=CCC3C2=O)CC1.Cl (centres unmarked)
Data returned: 223 to 224 °C

Data request: Output measured melting point for this item: CC(C)(C)c1ccc(N2CCN(CCCN3C(=O)C4CC=CCC4C3=O)CC2)cc1.Cl (centres unmarked)
Data returned: 264 to 265 °C

Data request: Output measured melting point for this item: COc1ccccc1N1CCN(CCCN2C(=O)C3CC=CCC3C2=O)CC1.Cl (centres unmarked)
Data returned: 184 to 185 °C

Data request: Output measured melting point for this item: Cc1ccccc1N1CCN(CCCN2C(=O)[C@H]3CC=CC[C@H]3C2=O)CC1 (as salt: hydrochloride)
Data returned: 186 to 187 °C

Data request: Output measured melting point for this item: Cl.O=C1C2CC=CCC2C(=O)N1CCCN1CCN(c2cccc(C(F)(F)F)c2)CC1 (centres unmarked)
Data returned: 215 to 217 °C

Data request: Output measured melting point for this item: Cl.O=C1C2CC=CCC2C(=O)N1CCCN1CCN(c2ccc([N+](=O)[O-])cc2)CC1 (centres unmarked)
Data returned: 259.5 to 261 °C

Data request: Output measured melting point for this item: Cl.O=C1C2CC=CCC2C(=O)N1CCCN1CCN(c2ccc(Cl)cc2Cl)CC1 (centres unmarked)
Data returned: 210 to 211 °C

Data request: Output measured melting point for this item: COc1ccccc1N1CCN(CC(C)CN2C(=O)C3CC=CCC3C2=O)CC1.Cl (centres unmarked)
Data returned: 184 to 185 °C

Data request: Output measured melting point for this item: COc1ccc(F)cc1N1CCN(CCCN2C(=O)C3CC=CCC3C2=O)CC1.Cl (centres unmarked)
Data returned: 163 to 165 °C

Data request: Output measured melting point for this item: Cl.O=C1C2CC=CCC2C(=O)N1CCCN1CCN(c2ccccc2F)CC1 (centres unmarked)
Data returned: 203 to 204 °C

Data request: Output measured melting point for this item: COc1cccc(O)c1N1CCN(CCCN2C(=O)C3CC=CCC3C2=O)CC1.Cl (centres unmarked)
Data returned: 267 to 268 °C

Data request: Output measured melting point for this item: CCCCCCOc1ccccc1N1CCN(CCCN2C(=O)C3CC=CCC3C2=O)CC1.Cl (centres unmarked)
Data returned: 165 to 166 °C

====

Kindly supply the reported Ki values for the records listed here.
biological target: α1A adrenoceptor (Rattus norvegicus, UniProt P43140); construct: from tissue; host or cells: rat submaxillary gland membranes; assay: Receptor binding assay, displacement of [3H]prazosin, rat submaxillary membranes; details: [3H]prazosin displacement, rat submaxillary membranes; read-out: α1A (Rat submaxillary) Ki
Numbers only; they are read as nM.

Data request: Output measured Ki for this item: Cc1ccc(N2CCN(CCCN3C(=O)C4CC=CCC4C3=O)CC2)cc1Cl.Cl (stereo not drawn) [Compound 17, hydrochloride]
Data returned: 48

Data request: Output measured Ki for this item: Cl.O=C1C2CC=CCC2C(=O)N1CCCN1CCN(c2ccc(F)cc2F)CC1 (stereo not drawn) [Compound 10, hydrochloride]
Data returned: 62

Data request: Output measured Ki for this item: COc1ccccc1N1CCN(CCCN2C(=O)C3CC=CCC3C2=O)CC1.Cl (stereo not drawn) [Compound 01, hydrochloride]
Data returned: 0.8

Data request: Output measured Ki for this item: Cl.O=C1C2CC=CCC2C(=O)N1CCCN1CCN(c2ccccc2F)CC1 (stereo not drawn) [Compound 06, hydrochloride]
Data returned: 36

Data request: Output measured Ki for this item: Cc1ccccc1N1CCN(CCCN2C(=O)[C@H]3CC=CC[C@H]3C2=O)CC1
Data returned: 32.5

Data request: Output measured Ki for this item: COc1ccc(F)cc1N1CCN(CCCN2C(=O)C3CC=CCC3C2=O)CC1.Cl (stereo not drawn) [Compound 08, hydrochloride]
Data returned: 0.34
